- condition.parameters: in ethanol, 318.15 K
measurement.type: solubility (mole fraction)
Kindly provide the number alone.

# solubility (mole fraction) of CCc1ccc(CCOc2ccc(CC3SC(=O)NC3=O)cc2)nc1.Cl (stereo unspecified) = 0.00222

----------
- condition.parameters: in n-propanol, 293.15 K
measurement.type: solubility (mole fraction)

// solubility (mole fraction) lookup, compound = CCc1ccc(CCOc2ccc(CC3SC(=O)NC3=O)cc2)nc1.Cl (stereo unspecified) , result: 0.000522

----------
- condition.parameters: in methanol, 278.15 K
measurement.type: solubility (mole fraction)
Please reply with the value in numeric form only.

Form: compound = CCc1ccc(CCOc2ccc(CC3SC(=O)NC3=O)cc2)nc1.Cl (stereo unspecified) ; solubility (mole fraction) = 0.004
